system: Echinochloa crus galli, barnyardgrass (ECHCG); assay: Biological Example 3 glasshouse screen, post-emergence herbicidal activity; type: in vivo; details: 360 h, application rate 30 g/ha, 15 DAA, no safener, read-out: ECHCG percentage phytotoxicity
MEASURED_QUANTITY: pest or weed control at 30 g/ha (%)
Dear colleague, please return just the value in %, with no unit written.

Some entries whose results are on file:
COMPOUND | pest or weed control at 30 g/ha [%]
CC#Cc1cc(C)c(C2C(=O)CC(Cc3ccn(C)n3)C2=O)c(C)c1 (stereo not shown) [Compound A-19] | 100
Cc1cc(-c2ccc(F)c(Cl)c2)cc(C)c1C1C(=O)CC(Cc2ccccn2)C1=O (stereo not shown) [reference compound] | 90
CC#Cc1cc(C)c(C2=C(O)CC(Cc3ccc(C)cn3)C2=O)c(C)c1 (stereo not shown) [Compound A-8] | 70
CC#Cc1cc(C)c(C2=C(O)CC(Cc3cccc(C)n3)C2=O)c(C)c1 (stereo not shown) [Compound A-9] | 70
Cc1cc(-c2ccc(F)cc2)cc(C)c1C1C(=O)CC(Cc2ccccn2)C1=O (stereo not shown) [Compound T71, from WO 2010/069834, reference compound] | 100
CC#Cc1cc(C)c(C2=C(O)CC(Cc3cccc(F)n3)C2=O)c(C)c1 (stereo not shown) [Compound A-7] | 80

## Input Would you mind telling me what pest or weed control at 30 g/ha value was observed for CC#Cc1cc(C)c(C2=C(O)CC(Cc3ccc(C#N)cn3)C2=O)c(C)c1 (stereo not shown) [Compound A-14] ?
## Output 90

## Input Now the compound CC#Cc1cc(C)c(C2=C(O)CC(CC3CCOCC3)C2=O)c(C)c1 (stereo not shown) [Compound A-4]
## Output 100

## Input Now the compound Cc1cc(-c2ccc(F)cc2)cc(C)c1C1C(=O)CC(Cc2ccc(C#N)cn2)C1=O (stereo not shown) [reference compound]
## Output 100

## Input Now the compound CC#Cc1cc(C)c(C2=C(O)CC(Cc3ccc(F)cn3)C2=O)c(C)c1 (stereo not shown) [Compound A-11]
## Output 100

---

test system: Echinochloa crus galli, barnyardgrass (ECHCG); assay: Biological Example 3 glasshouse screen, post-emergence herbicidal activity; assay type: in vivo; details: 360 h, application rate 60 g/ha, 15 DAA, no safener, read-out: ECHCG percentage phytotoxicity
MEASURED_QUANTITY: pest or weed control at 60 g/ha (%)
Dear colleague, please return just the value in %, with no unit written.

MOLECULE | UNIT_OF_MEASURE | pest or weed control at 60 g/ha
CC#Cc1cc(C)c(C2=C(O)CC(Cc3cccc(F)n3)C2=O)c(C)c1 (stereo not drawn) | % | 100
CC#Cc1cc(C)c(C2=C(O)CC(Cc3cccnc3)C2=O)c(C)c1 (stereo not drawn) | % | 80
CC#Cc1cc(C)c(C2=C(O)CC(Cc3ccc(F)cn3)C2=O)c(C)c1 (stereo not drawn) | % | 100
CC#Cc1cc(C)c(C2=C(O)CC(Cc3ccc(C#N)cn3)C2=O)c(C)c1 (stereo not drawn) | % | 90
CC#Cc1cc(C)c(C2=C(O)CC(Cc3cccc(C)n3)C2=O)c(C)c1 (stereo not drawn) | % | 100

Please turn your attention to the following entry.
## Input Would you mind telling me what pest or weed control at 60 g/ha value was observed for CC#Cc1cc(C)c(C2=C(O)CC(Cc3cccnc3C#CC)C2=O)c(C)c1 (stereo not drawn) ?
## Output 80

---

Tested on: Poa annua (POAAN)
Assay: Biological Example 4B (not-previously-formulated compounds) post-emergence herbicidal activity on grassy weeds
Assay type: in vivo
Settings: 60 g/ha, cloquintocet-mexyl 0 g/ha, 14 DAA, technical compound in IF50 + Adigor, mean of two
Experimental: Seeds of a variety of test species are sown in standard soil in pots. […] at a 1:20 ratio of (technical active ingredient:IF50). […] After 14 days the test is evaluated (100%=total damage to plant; 0%=no damage to plant). […] Herbicidal activity (phytotoxicity) is evaluated visually, and an assessed percentage phytotoxicity score is given for each herbicidal application on each plant species (with 100%=total damage to plant; 0%=no damage to plant). […]
Items are presented alongside their recorded POAAN % phytotoxicity.
Dear colleague, please return just the value in %, with no unit written.

Some entries whose results are on file:
COMPOUND | POAAN % phytotoxicity (%)
CC#Cc1cc(C)c(C2=C(O)CC(Cc3ccc(C)cn3)C2=O)c(C)c1 (centres unmarked) | 80
CC#Cc1cc(C)c(C2=C(O)CC(Cc3ccc(F)cn3)C2=O)c(C)c1 (centres unmarked) | 75
CC#Cc1cc(C)c(C2=C(O)CC(Cc3ccc(C#N)cn3)C2=O)c(C)c1 (centres unmarked) | 85
CC#Cc1cc(C)c(C2C(=O)CC(Cc3ccccn3)C2=O)c(CC)c1 (centres unmarked) | 73

Please turn your attention to the following entry.
## Input Would you mind telling me what POAAN % phytotoxicity value was observed for CC#Cc1cc(C)c(C2C(=O)CC(Cc3ccn(C)n3)C2=O)c(C)c1 (centres unmarked) ?
## Output 92

---

System: Lolium perenne (LOLPE)
Experiment: Biological Example 2 post-emergence herbicidal activity (comparative data)
Assay type: in vivo
Settings: 62.5 g/ha application rate
Experimental: Seeds of a variety of test species were sown in standard soil in pots. […] After 13 days for pre- or post-emergence, the test was evaluated visually, and an assessed percentage phytotoxicity score given for each herbicidal application on each plant/weed species (with 100%=total damage to plant; 0%=no damage to plant). […]
MEASURED_QUANTITY: LOLPE percentage phytotoxicity (%)
Dear colleague, please return just the value in %, with no unit written.

Some entries whose results are on file:
MOLECULE | TARGET_OR_SYSTEM | LOLPE percentage phytotoxicity / %
CC#Cc1cc(C)c(C2=C(O)CC(Cc3ccccn3)C2=O)c(C)c1 (racemic) | Lolium perenne (LOLPE) | 100
C#Cc1cc(C)c(C2=C(O)CC(CC3CCOCC3)C2=O)c(C)c1 (stereo not shown) [X-2, reference compound] | Lolium perenne (LOLPE) | 90
C#Cc1cc(C)c(C2=C(O)CC(Cc3ccccn3)C2=O)c(C)c1 (stereo not shown) [X-1, reference compound] | Lolium perenne (LOLPE) | 100

Please turn your attention to the following entry.
## Input Would you mind telling me what LOLPE percentage phytotoxicity value was observed for CC#Cc1cc(C)c(C2=C(O)CC(CC3CCOCC3)C2=O)c(C)c1 (stereo not shown) ?
## Output 100

---

Items are presented alongside their recorded pest or weed control at 60 g/ha.
system: Avena fatua, wild oats (AVEFA); test: Biological Example 3 glasshouse screen, post-emergence herbicidal activity; assay type: in vivo; conditions: 360 h, application rate 60 g/ha, 15 DAA, no safener, read-out: AVEFA percentage phytotoxicity
Units required after the number.

MOLECULE | pest or weed control at 60 g/ha
CC#Cc1cc(C)c(C2=C(O)CC(Cc3ccc(C#N)cn3)C2=O)c(C)c1 (stereo not drawn) [Compound A-14] | 60%
CC#Cc1cc(C)c(C2=C(O)CC(Cc3cccnc3C#CC)C2=O)c(C)c1 (stereo not drawn) [Compound A-15] | 80%
CC#Cc1cc(C)c(C2=C(O)CC(Cc3cccc(C)n3)C2=O)c(C)c1 (stereo not drawn) [Compound A-9] | 30%
CC#Cc1cc(C)c(C2=C(O)CC(Cc3cccc(F)n3)C2=O)c(C)c1 (stereo not drawn) [Compound A-7] | 50%

## Input Would you mind telling me what pest or weed control at 60 g/ha value was observed for CC#Cc1cc(C)c(C2=C(O)CC(Cc3cccnc3)C2=O)c(C)c1 (stereo not drawn) [Compound A-10] ?
## Output 50%

## Input Now the molecule CC#Cc1cc(C)c(C2=C(O)CC(Cc3ccc(F)cn3)C2=O)c(C)c1 (stereo not drawn) [Compound A-11]
## Output 100%

---

test system: Echinochloa crus-galli (ECHCG); assay: Biological Example 1 glasshouse screen, pre-emergence herbicidal activity; type: in vivo; details: 312 h, application rate 250 g/ha, evaluated after 13 days, read-out: ECHCG percentage phytotoxicity
Items are presented alongside their recorded pest or weed control at 250 g/ha.
Dear colleague, please return just the value in %, with no unit written.

## Input Would you mind telling me what pest or weed control at 250 g/ha value was observed for CC#Cc1cc(C)c(C2C(=O)CC(Cc3ccn[nH]3)C2=O)c(C)c1 (stereo not drawn) ?
## Output 100

---

Items are presented alongside their recorded Spring Barley “Harrington” phytotoxicity (%).
system: Spring Barley “Harrington”; assay: Biological Example 4B post-emergence phytotoxicity on cereal crops; assay type: in vivo; settings: 30 g/ha, cloquintocet-mexyl 50 g/ha, 14 DAA, technical compound in IF50 + Adigor, mean of two
Dear colleague, please return just the value in %, with no unit written.

## Input Would you mind telling me what Spring Barley “Harrington” phytotoxicity (%) value was observed for CC#Cc1cc(C)c(C2C(=O)CC(Cc3ccn(C)n3)C2=O)c(C)c1 (centres unmarked) [Compound A-19] ?
## Output 38

## Input Now the molecule CC#Cc1cc(C)c(C2=C(O)CC(Cc3ccc(C#N)cn3)C2=O)c(C)c1 (centres unmarked) [Compound A-14]
## Output 70

## Input Now the molecule CC#Cc1cc(C)c(C2=C(O)CC(Cc3ccc(F)cn3)C2=O)c(C)c1 (centres unmarked) [Compound A-11]
## Output 8

## Input Now the molecule CC#Cc1cc(C)c(C2=C(O)CC(Cc3ccc(C)cn3)C2=O)c(C)c1 (centres unmarked) [Compound A-8]
## Output 18

## Input Now the molecule CC#Cc1cc(C)c(C2C(=O)CC(Cc3ccccn3)C2=O)c(CC)c1 (centres unmarked) [Compound A-26]
## Output 99
